Data provenance is patent US20260209352A1.

- target-or-system: T1, Cynomolgus CD3 on Cyno CD3+ Jurkat cells (cynomolgus, UniProt Q95LI5 22-198)
- T1 construct: whole, on cells; CD3 on cells; also called cCD3
- T1 sequence (Q95LI5 22-198): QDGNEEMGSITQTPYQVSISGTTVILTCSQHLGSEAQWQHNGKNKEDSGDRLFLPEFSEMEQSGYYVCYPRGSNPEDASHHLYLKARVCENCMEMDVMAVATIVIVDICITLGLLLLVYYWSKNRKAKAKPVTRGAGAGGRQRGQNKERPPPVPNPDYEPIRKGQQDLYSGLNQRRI
- experiment-notes: cell binding cCD3, fold over background
Entries and their Cell Binding cCD3 (FOB)
Report as a plain number; the unit FOB is understood.

INSERT INTO measurements (binder, endpoint_unit, recorded_result) VALUES
  ('ADI-42594 (antibody, V domains shown, also called Ab1) VH: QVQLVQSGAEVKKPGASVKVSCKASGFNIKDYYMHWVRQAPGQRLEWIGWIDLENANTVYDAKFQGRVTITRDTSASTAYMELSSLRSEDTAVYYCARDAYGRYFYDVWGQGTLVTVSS VL: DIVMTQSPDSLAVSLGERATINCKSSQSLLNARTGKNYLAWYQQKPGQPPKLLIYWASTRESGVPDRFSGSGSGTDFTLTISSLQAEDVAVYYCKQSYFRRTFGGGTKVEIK', 'FOB', 122);

Pending binder:
INPUT: Give its Cell Binding cCD3 (FOB) value. Item: ADI-46360 (antibody, V domains shown, also called Ab44) VH: QVQLVQSGAEVKKPGASVKVSCKASGFNIKDYYMHWVRQAPGQRPEWIGWIDLENANTVYDAKFQGRVTITRDTSASTAYMELSSLRSEDAAAYYCARDAYGRYFYDVWGQGTLVTVSS VL: DIVMTQSPDSLAVSLGERATINCKSSQSLLNARTGKNYLAWYQQKPGQPPELLIYWASTRESGVPDRFSGSGSGTDFTLTISSLQAEDVAVYYCTQSYFRRTFGGGTKVEIK
OUTPUT: 106
